protocol summary: ATP cell viability assay (CellTiter-Glo) cytotoxicity
Assay type: cell-based
measurement parameters: human, A-THP-1 (PMA-activated THP-1, macrophage like) cells, 70% lopinavir loaded, 24 hours incubation
measurement label: IC50 at 24 h (µM)
Reply numerically in µM, unit not repeated.

Please look up its IC50 at 24 h: Cc1cccc(C)c1OCC(=O)N[C@@H](Cc1ccccc1)[C@@H](O)C[C@H](Cc1ccccc1)NC(=O)[C@H](C(C)C)N1CCCNC1=O [Aqueous solution, lopinavir]
84.3

====

protocol summary: ATP cell viability assay (CellTiter-Glo) cytotoxicity
Assay type: cell-based
measurement parameters: human, CEM (lymphocyte) cells, 70% lopinavir loaded, 24 hours incubation
measurement label: IC50 at 24 h
Give the number first and the unit second.

Can you share its IC50 at 24 h? I mean this compound: Cc1cccc(C)c1OCC(=O)N[C@@H](Cc1ccccc1)[C@@H](O)C[C@H](Cc1ccccc1)NC(=O)[C@H](C(C)C)N1CCCNC1=O [Aqueous solution, lopinavir]
100 µM

====

target or test system: recombinant HIV-1 protease (UniProt P04585)
protocol summary: Inhibition of recombinant HIV-1 protease
Format: biochemical
measurement parameters: 70% loaded; cell-free assay; read-out: IC50 against recombinant HIV protease
measurement label: pIC50
Scale for pIC50: -log10 of concentration given in mol/L; no unit attached.

Quick one: pIC50 of Cc1cccc(C)c1OCC(=O)N[C@@H](Cc1ccccc1)[C@@H](O)C[C@H](Cc1ccccc1)NC(=O)[C@H](C(C)C)N1CCCNC1=O [Aqueous solution, lopinavir] ?
7.49

====

protocol summary: ATP cell viability assay (CellTiter-Glo) cytotoxicity
Type: cell-based
measurement parameters: human, HepG2 (hepatic) cells, 70% lopinavir loaded, 24 hours incubation
measurement label: IC50 at 24 h (µM)
Response body: numeric value in µM, unit text excluded.

# get_value(readout='IC50 at 24 h', item= Cc1cccc(C)c1OCC(=O)N[C@@H](Cc1ccccc1)[C@@H](O)C[C@H](Cc1ccccc1)NC(=O)[C@H](C(C)C)N1CCCNC1=O [Aqueous solution, lopinavir] )
35.8
